src = patent US8865756B2

Test system: HCV 1b_Huh-Luc/Neo-ET cell line persistently expressing a bicistronic genotype 1b replicon in Huh 7 cells
Assay: HCV replicon assay (luciferase readout)
Assay type: cell-based
Details: Hepatitis C virus, Huh-7, 72 h, read-out: Inhibition of HCV genotype 1b
pEC50: −log10 of the molar value.
outcome measure: pEC50

smiles structure	value
COC(=O)N[C@@H](Cc1c[nH]c2ccccc12)C(=O)N1CCC[C@H]1c1ncc(-c2ccc(C#Cc3ccc4nc([C@@H]5CCCN5C(=O)[C@H](Cc5c[nH]c6ccccc56)NC(=O)OC)[nH]c4c3)cc2)[nH]1	> 9.00
COC(=O)N[C@H]1CCC[C@@H]1C(=O)N1CCC[C@H]1c1ncc(-c2ccc(C#Cc3ccc4nc([C@@H]5CCCN5C(=O)[C@H]5CCC[C@@H]5NC(=O)OC)[nH]c4c3)cc2)[nH]1	6.00 to 8.00
C[C@H](NC(=O)[C@@H]1CCCN1C(=O)[C@H](NC(=O)OC(C)(C)C)c1ccccc1)c1ccc(C#Cc2cnc([C@@H]3CCCN3C(=O)[C@H](NC(=O)OC(C)(C)C)c3ccccc3)[nH]2)cc1	6.00 to 8.00
CS(=O)(=O)N[C@@H](C(=O)N1CCC[C@H]1c1ncc(-c2ccc(C#Cc3ccc(-c4cnc([C@@H]5CCCN5C(=O)[C@H](NS(C)(=O)=O)c5ccccc5)[nH]4)cc3)cc2)[nH]1)c1ccccc1	> 9.00
CC(C)[C@@H](NC(=O)C1CC1)C(=O)N1CCC[C@H]1C(=O)NCCc1ccc(C#Cc2cnc([C@@H]3CCCN3C(=O)[C@H](NC(=O)C3CC3)C(C)C)[nH]2)cc1	6.00 to 8.00
